systemName: GSK-3β (Homo sapiens)
Sequence (P49841 whole entry): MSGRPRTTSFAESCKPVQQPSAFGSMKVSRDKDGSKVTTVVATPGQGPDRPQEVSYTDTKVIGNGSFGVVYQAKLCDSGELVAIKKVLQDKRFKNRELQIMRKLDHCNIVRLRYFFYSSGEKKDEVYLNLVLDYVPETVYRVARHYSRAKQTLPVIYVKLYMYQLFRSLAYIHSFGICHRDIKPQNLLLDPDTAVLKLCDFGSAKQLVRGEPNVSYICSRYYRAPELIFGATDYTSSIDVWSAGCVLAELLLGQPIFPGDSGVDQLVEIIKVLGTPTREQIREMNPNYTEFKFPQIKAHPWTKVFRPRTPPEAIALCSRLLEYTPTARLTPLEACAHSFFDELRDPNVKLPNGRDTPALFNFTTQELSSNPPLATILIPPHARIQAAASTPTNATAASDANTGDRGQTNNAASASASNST
pIC50: −log10 of the molar value.
experimentalReadout: pIC50

{"chemicalString": "COc1ccc(Cn2cc(CN3C(=O)C(=NNc4ccccc4)c4ccccc43)nn2)cc1", "readoutNumber": 4.22}
